Would you kindly list microsomal CLint at 1 uM for each of these compounds?
ASSAY_NAME: Metabolic stability in human hepatic microsome
Assay type: in vitro ADME
CONDITION_INFO: human, microsomes, pH 7.4, CL NADPH(+)
Positions of bridges follow the written chain, without caps; N, C: chain ends. Non-standard residues stand in square brackets, D forms with d. Residues, ends and D or L forms follow the SMILES beside them. *: point of attachment. NMeF = CN[C@@H](Cc1ccccc1)C(=O)O; NMeI = CC[C@H](C)[C@H](NC)C(=O)O; NMeL = CN[C@@H](CC(C)C)C(=O)O; NMeV = CN[C@H](C(=O)O)C(C)C; NMeA = CN[C@@H](C)C(=O)O; Piperidide = C1CCN(*)CC1; dNMeA = CN[C@H](C)C(=O)O; β3hA = C[C@H](N)CC(=O)O; Sar = CNCC(=O)O; tBu = CC(C)(C)*

Any idea what its microsomal CLint at 1 uM is? The compound is CC[C@H](C)[C@@H]1NC(=O)[C@H](CC(C)C)N(C)C(=O)[C@H](C(C)C)N(C)C(=O)[C@H](C)NC(=O)[C@H](C)N(C)C(=O)[C@H](Cc2ccccc2)NC(=O)[C@H]([C@@H](C)O)NC(=O)[C@H](CC(C)C)N(C)C(=O)[C@H](CC(C)C)N(C)C(=O)[C@H](C)N(C)C(=O)C[C@H](C)NC1=O [DP-770] (cyclo(A[NMeV][NMeL]I[β3hA][NMeA][NMeL][NMeL]TF[NMeA])) 95 µL/min/mg

Would you mind telling me what microsomal CLint at 1 uM value was observed for CC[C@H](C)[C@H]1C(=O)N[C@@H]([C@@H](C)O)C(=O)N(C)CC(=O)N[C@H](C(=O)N2CCCCC2)CC(=O)N[C@H](C)C(=O)N[C@@H](CC(C)C)C(=O)N(C)[C@@H](CC(C)C)C(=O)N(C)[C@@H](Cc2ccccc2)C(=O)N[C@@H](C)C(=O)N(C)[C@@H](Cc2ccccc2)C(=O)N(C)[C@@H](CC(C)C)C(=O)N1C [DP-97] ([dA]L[NMeL][NMeF]A[NMeF][NMeL][NMeI]T[Sar]D-Piperidide; lactam N-11) ? 72 µL/min/mg

Suppose we examine the compound CC[C@H](C)[C@H]1C(=O)NCC(=O)N[C@@H](C)CC(=O)N(C)[C@H](C)C(=O)N[C@@H](Cc2ccccc2)C(=O)N(C)[C@@H](CC(C)C)C(=O)N[C@@H](COC(C)(C)C)C(=O)N[C@@H](Cc2ccccc2)C(=O)N2CCC[C@H]2C(=O)N[C@@H]([C@@H](C)O)C(=O)N[C@@H](CC(C)C)C(=O)N1C [DP-815] (cyclo(F[NMeL]S(tBu)FPTL[NMeI]G[β3hA][dNMeA])) ; what microsomal CLint at 1 uM value has been reported? 104 µL/min/mg

----------
ASSAY_NAME: PAMPA (parallel artificial membrane permeability assay)
Type: in vitro ADME
CONDITION_INFO: PAMPA; membrane permeation rate (Pe); 50 mM MOPSO buffer pH 6.5 with 5.0% glycocholic acid, 37° C., 18 hours; read-out: iPAMPA Pe
Starred links: 1 amine or outer side, 2 acyl side, 3 side chain; linkers in the order of their positions; H or OH if unused. Positions of bridges follow the written chain, without caps; N, C: chain ends. Non-standard residues stand in square brackets, D forms with d. Residues, ends and D or L forms follow the SMILES beside them. *: point of attachment. Phe(4-CF3) = N[C@@H](Cc1ccc(C(F)(F)F)cc1)C(=O)O; NMeF = CN[C@@H](Cc1ccccc1)C(=O)O; NMeGABA = CN(CCCC(=O)[*:2])[*:1]; NMeL = CN[C@@H](CC(C)C)C(=O)O; NMeV = CN[C@H](C(=O)O)C(C)C; NMeA = CN[C@@H](C)C(=O)O; Piperidide = C1CCN(*)CC1; β3hA = C[C@H](N)CC(=O)O
RECORDED_METRIC: Papp at 18 hours, 50 µM (×10⁻⁶ cm/s)
Just the number in ×10⁻⁶ cm/s, nothing appended.

Any idea what its Papp at 18 hours, 50 µM is? The compound is CC(C)C[C@@H]1NC(=O)[C@H](CC(C)C)N(C)C(=O)[C@H](C)N(C)C(=O)C[C@@H](C(=O)N2CCCCC2)NC(=O)[C@H](CC(C)C)N(C)C(=O)[C@H](Cc2ccccc2)N(C)C(=O)[C@H](C)N(C)C(=O)[C@H]([C@@H](C)O)NC(=O)[C@H](Cc2ccccc2)N(C)C1=O [DP-520] ([NMeA][NMeL]L[NMeF]T[NMeA][NMeF][NMeL]D-Piperidide; lactam N-9) 29

Request the reported Papp at 18 hours, 50 µM associated with CC(C)C[C@@H]1NC(=O)[C@H](C)NC(=O)C[C@H](C)NC(=O)[C@H](C(C)C)N(C)C(=O)[C@H](CC(C)C)N(C)C(=O)[C@H]([C@@H](C)O)NC(=O)[C@H](Cc2ccc(C(F)(F)F)cc2)NC(=O)[C@H](C)N(C)C(=O)CNC(=O)[C@H](CC(C)C)N(C)C(=O)[C@H](C)N(C)C1=O [DP-829] (cyclo(AL[NMeA][NMeL]G[NMeA][Phe(4-CF3)]T[NMeL][NMeV][β3hA])) 21

What value of measured Papp at 18 hours, 50 µM is listed for CC(C)C[C@H]1C(=O)N[C@@H]([C@@H](C)O)C(=O)N(C)[C@@H](C)C(=O)N(C)[C@@H](CC(C)C)C(=O)N[C@H](C(=O)N2CCCCC2)CC(=O)N(C)CCCC(=O)N[C@@H](C)C(=O)N(C)[C@@H](Cc2ccccc2)C(=O)N[C@@H](Cc2ccccc2)C(=O)N1C [DP-128] ([NMeGABA]A[NMeF]F[NMeL]T[NMeA][NMeL]D-Piperidide; lactam N-9) ? 23

----------
ASSAY_NAME: Metabolic stability in human hepatic microsome
Type: in vitro ADME
CONDITION_INFO: microsomes, pH 7.4; human hepatic microsome, NADPH(+); read-out: CL NADPH(+)
Starred links: 1 amine or outer side, 2 acyl side, 3 side chain; linkers in the order of their positions; H or OH if unused. Positions of bridges follow the written chain, without caps; N, C: chain ends. Non-standard residues stand in square brackets, D forms with d. Residues, ends and D or L forms follow the SMILES beside them. *: point of attachment. Phe(3-(CH2)4CO) = O=C([C@H](Cc1cccc(CCCCC(=O)[*:3])c1)N[*:1])[*:2]; NMeI = CC[C@H](C)[C@H](NC)C(=O)O; NMeL = CN[C@@H](CC(C)C)C(=O)O; NMeV = CN[C@H](C(=O)O)C(C)C; NMeA = CN[C@@H](C)C(=O)O; Piperidide = C1CCN(*)CC1; dNMeA = CN[C@H](C)C(=O)O; Sar = CNCC(=O)O
RECORDED_METRIC: microsomal CLint at 1 uM

Which microsomal CLint at 1 uM reading was recorded for the compound CC[C@H](C)[C@@H]1NC(=O)[C@H](Cc2ccccc2)NC(=O)[C@@H]2CCCN2C(=O)[C@H](CC(C)C)N(C)C(=O)[C@H](Cc2ccccc2)NC(=O)[C@H](CC(C)C)NC(=O)[C@H]([C@@H](C)O)NC(=O)CCCCc2cccc(c2)C[C@@H](C(=O)N2CCCCC2)NC(=O)[C@H](CC(C)C)NC(=O)CN(C)C1=O [DP-901] (TLF[NMeL]PFI[Sar]L[Phe(3-(CH2)4CO)]-Piperidide; lactam N-10) ? 131 µL/min/mg

Could you tell me which microsomal CLint at 1 uM is on file for CC[C@H](C)[C@H]1C(=O)N[C@H](C(=O)N2CCCCC2)CC(=O)N(C)[C@H](C)C(=O)N(C)[C@@H](C(C)C)C(=O)N[C@@H](Cc2ccccc2)C(=O)N[C@@H](CC(C)C)C(=O)N(C)[C@@H](C)C(=O)N[C@@H]([C@@H](C)O)C(=O)N[C@@H](Cc2ccccc2)C(=O)N(C)[C@@H](CC(C)C)C(=O)N[C@@H](CC(C)C)C(=O)NCC(=O)N1C [DP-223] ([dNMeA][NMeV]FL[NMeA]TF[NMeL]LG[NMeI]D-Piperidide; lactam N-12) ? 42 µL/min/mg

----------
ASSAY_NAME: PAMPA (parallel artificial membrane permeability assay)
Format: in vitro ADME
CONDITION_INFO: PAMPA, pH 6.5
Starred links: 1 amine or outer side, 2 acyl side, 3 side chain; linkers in the order of their positions; H or OH if unused. Positions of bridges follow the written chain, without caps; N, C: chain ends. Non-standard residues stand in square brackets, D forms with d. Residues, ends and D or L forms follow the SMILES beside them. ξ: configuration not given here. *: point of attachment. NMeF = CN[C@@H](Cc1ccccc1)C(=O)O; NMeGABA = CN(CCCC(=O)[*:2])[*:1]; NMeI = CC[C@H](C)[C@H](NC)C(=O)O; NMeβAla = CN(CCC(=O)[*:2])[*:1]; NMeL = CN[C@@H](CC(C)C)C(=O)O; NMeV = CN[C@H](C(=O)O)C(C)C; NMeA = CN[C@@H](C)C(=O)O; Piperidide = C1CCN(*)CC1; β3hA = C[C@H](N)CC(=O)O; ξP = O=C(O)C1CCCN1; tBu = CC(C)(C)*
The label TRUE is reserved for Papp at 18 hours, 50 µM strictly under 30 ×10⁻⁶ cm/s; FALSE covers values equal to or above it.

Decide: Papp at 18 hours, 50 µM of CC[C@H](C)[C@@H]1NC(=O)[C@@H]2CCCN2C(=O)[C@H]([C@@H](C)O)NC(=O)[C@H](Cc2ccccc2)NC(=O)CNC(=O)[C@H](Cc2ccccc2)N(C)C(=O)[C@H](CC(C)C)NC(=O)[C@H](CC(C)C)N(C)C(=O)[C@H](CC(C)C)N(C)C(=O)CCCN(C)C(=O)C[C@@H](C(=O)N2CCCCC2)NC1=O [DP-113] ([NMeGABA][NMeL][NMeL]L[NMeF]GFTPID-Piperidide; lactam N-11) strictly below 30 ×10⁻⁶ cm/s? TRUE

Is the reported Papp at 18 hours, 50 µM for CC(C)C[C@H]1C(=O)N(C)[C@@H](Cc2ccccc2)C(=O)NCC(=O)N(C)[C@@H](Cc2ccccc2)C(=O)N(C)[C@@H](C)C(=O)N[C@@H]([C@@H](C)O)C(=O)N[C@H](C(=O)N(C)[C@@H](Cc2ccccc2)C(=O)N(C)[C@@H](Cc2ccccc2)C(=O)N[C@@H](C)C(=O)N2CCCCC2)CC(=O)N(C)CCC(=O)N[C@@H](C(C)C)C(=O)N1C [DP-312] ([NMeβAla]V[NMeL][NMeF]G[NMeF][NMeA]TD[NMeF][NMeF]A-Piperidide; lactam N-9) strictly below 30 ×10⁻⁶ cm/s? FALSE

Identify whether the compound CC[C@H](C)[C@@H]1NC(=O)[C@H](Cc2ccccc2)N(C)C(=O)[C@H](Cc2ccccc2)NC(=O)[C@H]([C@@H](C)O)NC(=O)[C@H](C(C)C)N(C)C(=O)[C@H](CC(C)C)NC(=O)[C@H](CC(C)C)N(C)C(=O)CCCN(C)C(=O)C[C@@H](C(=O)N2CCCCC2)NC(=O)[C@H](C)NC(=O)[C@H](C)N(C)C1=O [DP-274] ([NMeGABA][NMeL]L[NMeV]TF[NMeF]I[NMeA]AD-Piperidide; lactam N-11) records Papp at 18 hours, 50 µM below 30 ×10⁻⁶ cm/s. TRUE

Say whether its Papp at 18 hours, 50 µM is strictly beneath 30 ×10⁻⁶ cm/s. Entry: CC[C@H](C)[C@H]1C(=O)N[C@@H](CC(C)C)C(=O)N(C)[C@@H](CC(C)C)C(=O)N[C@@H](COC(C)(C)C)C(=O)N(C)[C@@H](CC(C)C)C(=O)N[C@@H](C)CC(=O)N(C)CCC(=O)N[C@@H](Cc2ccccc2)C(=O)N(C)[C@@H](Cc2ccccc2)C(=O)N(C)[C@@H](CC(C)C)C(=O)N[C@@H]([C@@H](C)O)C(=O)N(C)[C@@H](C)C(=O)N1C [DP-758] (cyclo(F[NMeF][NMeL]T[NMeA][NMeI]L[NMeL]S(tBu)[NMeL][β3hA][NMeβAla])) TRUE

For CC(C)C[C@@H]1NC(=O)[C@H](CC(C)C)N(C)C(=O)[C@H](CC(C)C)N(C)C(=O)C[C@@H](C(=O)N2CCCCC2)NC(=O)[C@H](Cc2ccccc2)N(C)C(=O)C2CCCN2C(=O)[C@H]([C@@H](C)O)NC(=O)[C@H](Cc2ccccc2)N(C)C1=O (stereo partly drawn) [DP-706] ([NMeL][NMeL]L[NMeF]T[ξP][NMeF]D-Piperidide; lactam N-8) , is the recorded Papp at 18 hours, 50 µM below the cut-off of 30 ×10⁻⁶ cm/s? FALSE
